# Test system: 5-HT2a (Homo sapiens, UniProt P28223)
# Construct: purchased Euroscreen/BioSignal Packard Inc
# Sequence (P28223 whole entry): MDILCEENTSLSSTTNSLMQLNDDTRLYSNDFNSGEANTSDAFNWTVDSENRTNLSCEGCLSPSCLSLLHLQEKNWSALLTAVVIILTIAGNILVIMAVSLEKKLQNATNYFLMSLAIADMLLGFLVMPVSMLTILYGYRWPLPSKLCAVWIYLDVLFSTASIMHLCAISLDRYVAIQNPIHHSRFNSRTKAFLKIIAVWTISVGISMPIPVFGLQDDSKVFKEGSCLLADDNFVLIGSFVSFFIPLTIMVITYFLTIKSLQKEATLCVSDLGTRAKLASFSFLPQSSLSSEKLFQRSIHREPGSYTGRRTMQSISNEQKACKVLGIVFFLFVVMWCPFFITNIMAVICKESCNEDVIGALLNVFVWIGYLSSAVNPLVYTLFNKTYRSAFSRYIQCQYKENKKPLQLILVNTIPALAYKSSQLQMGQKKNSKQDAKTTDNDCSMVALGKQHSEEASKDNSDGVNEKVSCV
# Measurement protocol: Radioligand binding, 5-HT2a ([3H]Ketanserin)
# Protocol conditions: Table 4; [3H]Ketanserin 1 nM; read-out: Binding affinity, IC50 (nM) 5-HT2a
Measured IC50, listed per entry for reference.
# value in nM; strip the unit string

INSERT INTO results (molecule, test_system, measure_unit, result) VALUES
  ('COc1ccc([C@]2(C)C(=O)c3c(N4CCNCC4)cc(Cl)cc3N(Cc3ccccc3)C2=O)cc1 [Example 13-2]', '5-HT2a (Homo sapiens, UniProt P28223)', 'nM', 2840),
  ('CN1CCN(c2cc(Cl)cc3c2C(=O)C(C)(c2ccc([N+](=O)[O-])cc2)C(=O)N3Cc2ccccc2)CC1 (stereo not drawn) [Example 3]', '5-HT2a (Homo sapiens, UniProt P28223)', 'nM', 1540),
  ('COc1ccc(C2(C)C(=O)c3c(N4CCNCC4)cc(Cl)cc3N(Cc3nc4ccccc4[nH]3)C2=O)cc1 (stereo not drawn) [Example 43]', '5-HT2a (Homo sapiens, UniProt P28223)', 'nM', 5800),
  ('CC1(c2ccc(I)cc2)C(=O)c2c(N3CCNCC3)cc(Cl)cc2N(Cc2ccccc2)C1=O (stereo not drawn) [Example 21]', '5-HT2a (Homo sapiens, UniProt P28223)', 'nM', 553),
  ('COc1ccc(C2(C)C(=O)c3c(N4CCNCC4)cc(Cl)cc3N(Cc3ccc(-c4ccccc4)cc3)C2=O)cc1 (stereo not drawn) [Example 41]', '5-HT2a (Homo sapiens, UniProt P28223)', 'nM', 8470);

Data request, read-out IC50, for CC1(c2ccc(O)cc2)C(=O)c2c(N3CCNCC3)cc(Cl)cc2N(Cc2ccccc2)C1=O (racemic) [Example 14] 2140

Data request, read-out IC50, for CC1(c2ccc(O)cc2)C(=O)c2c(N3CCNCC3)cc(Cl)cc2N(Cc2cccc(N)c2)C1=O (stereo not drawn) [Example 26] 5750

Data request, read-out IC50, for COc1ccc(C2(C)C(=O)c3c(N4CCN(C)CC4)cc(Cl)cc3N(Cc3ccccc3)C2=O)cc1 (stereo not drawn) [Example 1] 1120

Data request, read-out IC50, for COc1ccc(C2(C)C(=O)c3c(N4CCNCC4)cc(Cl)cc3N(Cc3ccccc3Br)C2=O)cc1 (stereo not drawn) [Example 35] 7640

Data request, read-out IC50, for CC1(c2ccc([N+](=O)[O-])cc2)C(=O)c2c(N3CCNCC3)cc(Cl)cc2N(Cc2ccccc2)C1=O (stereo not drawn) [Example 15] 8120

Data request, read-out IC50, for CC1(c2ccc(O)cc2)C(=O)c2c(N3CCNCC3)cc(Cl)cc2N(Cc2cccc([N+](=O)[O-])c2)C1=O (stereo not drawn) [Example 24] 5040
